Tested on: SNB-19 CNS
Assay: NCI tumour cell line growth inhibition, 48 h
measured_quantity: TGI

COc1c(/C=C/C=O)cc2c(c1OC)OCO2
44.8 µM
CC(=O)NC(Cc1ccccc1)NC(=O)O (stereo unspecified)
> 100 µM
Oc1ccc2c3c1OC1c4[nH]ncc4C[C@H]4[C@@H](C2)N(CC2CC2)CC[C@]314 (stereo partly specified)
> 100 µM
O/N=C(/CC(O)(C(F)(F)F)C(F)(F)F)c1ccccc1
> 10 µM
NC(=S)N/N=C1\c2ccccc2-c2c(F)c(F)c(F)c(F)c21
29.2 µM

stdin: I would be grateful if you could share the reported TGI for O=C(O)C1(Cc2ccccc2)Cc2cc3c(cc2C1)CCC3 .
stdout: > 100 µM

stdin: # input molecule: CC(NCc1c(O)ccc2ccc(=O)oc12)C(=O)O (stereo unspecified) ; wanted: its TGI
stdout: > 100 µM

stdin: // TGI lookup, key: Cc1cnc2oc3ccc(O)cc3c2c1-c1ccccc1
stdout: > 100 µM

stdin: Given the molecule O=C(O)CC(NC(=O)/C(=C/c1ccccc1)NC(=O)c1ccccc1)C(=O)O (stereo unspecified) , what is its reported TGI?
stdout: > 100 µM

stdin: I have this molecule here, COc1ccc2c(=O)cc(-c3ccc(OC)c(OC)c3OC)oc2c1 , and I need its recorded TGI.
stdout: > 100 µM

stdin: Which TGI value is on record for COC(=O)c1ncc2c(=O)[nH]c3ccccc3c2c1C(=O)OC ?
stdout: > 100 µM

---

Test system: SF-295 CNS
Assay: NCI tumour cell line growth inhibition, 48 h; in the data active = GI50 below about 0.43 µM; inactive = the rest
Could you please pick one outcome from this set? TRUE for active, FALSE for inactive

Here are 5 molecules together with their reported answers.
Cc1ccc2cccc(OC(=O)Nc3cccc(C(F)(F)F)c3)c2n1
FALSE
COC1=C(C)C(=O)c2c(c(CCCl)c3n2CCC3OC(C)=O)C1=O (stereo not drawn)
TRUE
CCOC(=O)C1=C(C)NC(=O)NC1CN1C(=O)c2ccccc2C1=O (stereo not drawn)
FALSE
O=c1c2ccccc2c(/C=N\NC2=NCCN2)c2oc3ccccc3n12
FALSE
CN(C)CCCSc1ccccc1NC1=C(Cl)C(=O)C(Nc2ccccc2SCCCN(C)C)=C(Cl)C1=O
FALSE

stdin: Which outcome was entered for the molecule CC(=O)CC/C=C(\C)[C@H](O)[C@H](C)C(=O)O[C@H]1C[C@H](C)C=C2C=C[C@@]3(C)O[C@@H](O)CC(=O)[C@]3(C)[C@H]21 in this test?
stdout: FALSE

stdin: // outcome(item) with item = COCCOC1=CC(=O)c2c(O)ccc(O)c2C1=O
stdout: FALSE

stdin: Assay outcome for CC(C)(c1ccccc1)c1cc(O)c(C(C)(C)c2ccccc2)cc1O : what was it?
stdout: FALSE

stdin: Each molecule tested received a call. Report the one for COc1ccc(C2CC(c3ccc(Nc4ccnc5cc(Cl)ccc45)cc3)=NN2C=O)cc1 (stereo not drawn) .
stdout: FALSE

stdin: Could you please tell me the result logged for O=C1CC(c2ccccc2)Cc2nc3ccc(Br)cc3cc21 (stereo not drawn) in this assay?
stdout: TRUE

---

Test system: U251 CNS
One label from this list, please: active, inactive

Worked examples, 5 molecules total:
Oc1c(Cl)cc(Cl)cc1/C=N/Nc1nnc(N/N=C/c2cc(Cl)cc(Cl)c2O)c2ccccc12
active
CC1(C)N=C(N)N=C(N)N1c1ccc(Cl)cc1
inactive
O=Nc1c(-c2c(O)[nH]c3cc(Br)ccc23)[nH]c2ccccc12
inactive
Cc1ccc(C=C2C(Cl)=C(Cl)C(Cl)=C2Cl)cc1
inactive
N#CC1=C(N)NC(=S)NC12Nc1ccccc1S2 (configuration not stated)
inactive

Continue with the next molecule.
stdin: What is the recorded call for this molecule in the test? COc1ccc(CCN(CC(=O)N(CC(N)=O)C2CCC[C@@H]2OCc2ccccc2)C(=O)CN(C(=O)CN(CCc2ccc(Cl)cc2)C(=O)CN(C(=O)CN(C)Cc2ccccc2F)[C@H](C)C2CCCCC2)[C@H](C)C2CCCCC2)cc1OC (some centres not stated)
stdout: inactive

---

// reported TGI for each item listed
System: HOP-92 NSCLC
Assay: NCI tumour cell line growth inhibition, 48 h
Report the figure in µM without appending any unit label.

Example compounds with recorded TGI:
CC(C)(C)c1cc(/C=N/NC(=O)c2ccccc2NC(=O)c2cccs2)c(O)c(C(C)(C)C)c1
80.5
CC(C)CCCC(C)[C@H]1CC[C@H]2n3c(nc4ccccc43)CCC[C@]12C (stereo not given in full)
37.3
COC(=O)C1=C(C)N2CCSC2(C)C(C(=O)OC)C1c1cccc(Cl)c1 (stereo not given)
53.2

stdin: Bench note: what TGI did COc1cc(/C=C/c2cc(/C=C/c3ccc(O)c(OC)c3)n(C(=O)Nc3ccccc3Cl)n2)ccc1O show?
stdout: 2.39

stdin: Value lookup for TGI; key = CCOc1ccc(/C=C/c2cc(OC)c(OC)c(OC)c2)cc1
stdout: 93.8

---

Tested on: HOP-62 NSCLC
Experiment: NCI tumour cell line growth inhibition, 48 h
Here, each record is paired with measured TGI data.
Give your result in µM as a bare value.

Worked set:
CCN(CC)CC(C)C(=O)/C=C/c1ccc(C)cc1 (stereo unspecified)
33.5
O=C1c2cccnc2C(=O)c2c1c(C(=O)OCCN1CCCCC1)c1ccccn21
0.0313

Would you kindly look at the next entry?
stdin: Recorded TGI for CN/C=C(\C(=O)c1ccc(OC)c(OC)c1)c1ccc(OC)cc1 with HOP-62 NSCLC, please?
stdout: 94

---

Test system: NCI-H23 lung
Test: NCI tumour cell line growth inhibition, 48 h; in the data active = GI50 below about 0.43 µM; inactive = the rest
I would appreciate it if you answered using one of these outcomes: active, inactive

Worked set:
O=c1c2ccccc2c(/C=N\NC2=NCCN2)c2oc3ccccc3n12
inactive
Cn1cc(-c2nc(-c3c[nH]c4ncccc34)cs2)c2ccccc21
inactive
O=C(O)c1cc(=O)cc(C(=O)O)o1
inactive
O=Nc1c(-c2c(O)[nH]c3cc(Br)ccc23)[nH]c2ccccc12
inactive
COc1cc(-c2nc3sc(C)cn3c2/C=C2\C(=O)Nc3ccccc32)c(Br)c(OC)c1OC
inactive
CC(C)[C@@](O)(c1ccc2cc(OC(F)F)c(OC(F)F)cc2c1)c1cn[nH]n1
inactive
O=C1c2cccnc2C(=O)c2c1c(C(=O)OCCN1CCCCC1)c1ccccn21
active
COc1cc([N+](=O)[O-])c(OC)cc1-c1nc2sc(C)cn2c1/C(N)=N/C(=N)N
inactive
Oc1c(Cl)cc(Cl)cc1/C=N/Nc1nnc(N/N=C/c2cc(Cl)cc(Cl)c2O)c2ccccc12
active
O=C(C=P(c1ccccc1)(c1ccccc1)c1ccccc1)CCl
inactive

stdin: Outcome logged for CC1(C)N=C(N)N=C(N)N1c1ccc(OCCCNC(=O)Nc2cccc(S(=O)(=O)F)c2)c(Cl)c1 in this assay:
stdout: inactive

stdin: Any idea what this test logged for CCN(CC)CC[n+]1ccc2c(C)c3[nH]c4ccc(O)cc4c3c(C)c2c1 ?
stdout: inactive

---

Test system: MOLT-4 leukemia
Assay: NCI tumour cell line growth inhibition, 48 h
Listing of recorded TGI by entry.

# example entries with known answers
Cc1cc(C)nc(NS(=O)(=O)c2ccc(Nc3c4ccccc4nc4c(C(=O)NC(CO)(CO)CO)cccc34)cc2)n1
> 100 µM
O=C1CSC(c2ccccc2)N1c1ccc(-n2c(-c3ccccc3)nc3ccccc3c2=O)cc1 (configuration not stated)
> 100 µM
CC1=C(C)C(=O)O[C@@H]([C@](C)(O)[C@]2(O)CC[C@@]3(O)[C@@H]4C[C@H](O)[C@]5(O)[C@@H](O)C=CC(=O)[C@]5(C)[C@H]4CC[C@]23C)C1
> 100 µM

stdin: Which measured TGI value corresponds to CCOC(=O)CC1(Cc2ccc(OCc3ccccc3)cc2)C(=O)OC(c2ccccc2)N1C(=O)c1ccccc1 (configuration not stated) ?
stdout: > 100 µM

stdin: What does the record list as TGI for Cc1ccc(OCC2OC(n3cnc4nc(Nc5ccc(Cl)c(Cl)c5)nc(Cl)c43)CC2Oc2ccc(C)cc2)cc1 (configuration not stated) ?
stdout: > 100 µM

stdin: Look up TGI for this molecule: CC(C)[C@@](O)(c1ccc2cc(OC(F)F)c(OC(F)F)cc2c1)c1cn[nH]n1
stdout: 70.7 µM

stdin: // lookup TGI for COc1cc2c(c(O)c1OC)C(=O)[C@@H]1CCC(=O)N1C2c1ccccc1 (some centres not stated)
stdout: > 100 µM

stdin: Returns the measured TGI for the input molecule. Input: O=c1c2ccccc2c(/C=N\NC2=NCCN2)c2oc3ccccc3n12
stdout: > 100 µM

stdin: Value lookup for TGI; key = N#CCC(=O)N/N=C1/C(=O)N(c2cc(Cl)ccc2Cl)C(=O)C(=O)C1c1nc2ccccc2s1 (configuration not stated)
stdout: > 100 µM

stdin: # input molecule: CC(=O)OCC1OC(OC2C(COC(C)=O)OC(Sc3ccccc3C)C(OC(C)=O)C2OC(C)=O)C(OC(C)=O)C(OC(C)=O)C1OC(C)=O (configuration not stated) ; wanted: its TGI
stdout: > 100 µM
